# EC50 values compiled below
- tested-on: Adenosine receptor A2a (Homo sapiens, UniProt P29274)
- Sequence (P29274 whole entry): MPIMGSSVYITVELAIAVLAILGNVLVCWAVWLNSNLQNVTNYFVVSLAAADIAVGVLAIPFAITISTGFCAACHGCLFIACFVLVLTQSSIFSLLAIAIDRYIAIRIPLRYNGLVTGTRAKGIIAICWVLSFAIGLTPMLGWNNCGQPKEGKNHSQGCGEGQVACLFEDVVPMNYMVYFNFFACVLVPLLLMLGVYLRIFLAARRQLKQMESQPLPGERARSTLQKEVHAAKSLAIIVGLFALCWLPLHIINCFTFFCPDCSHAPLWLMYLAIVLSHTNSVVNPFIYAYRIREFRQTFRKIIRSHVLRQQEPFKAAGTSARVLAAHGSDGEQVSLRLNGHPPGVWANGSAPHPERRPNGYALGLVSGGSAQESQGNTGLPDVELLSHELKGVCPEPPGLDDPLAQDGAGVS
- assay-info: Agonist activity at human A2A-AR expressed in FlpIn-CHO cells assessed as inhibition of forskolin-stimulated cAMP accumulation preincubated for 40 mins followed by forskolin addition measured after 30 mins by Alphascreen assay
property-measured: EC50 (nM)

smiles_input=Nc1sc(-c2ccc(C(=O)NCCCCCCNc3nc(Cl)nc4c3ncn4[C@@H]3O[C@H](CO)[C@@H](O)[C@H]3O)cc2)c(-c2cccc(C(F)(F)F)c2)c1C(=O)c1ccccc1 tested_on="Adenosine receptor A2a (Homo sapiens, UniProt P29274)" measure_unit=nM measured_result=145
smiles_input=O=C(NCCCCCCNc1ncnc2c1ncn2[C@@H]1O[C@H](CO)[C@@H](O)[C@H]1O)c1cccc(-c2cc(C(=O)c3ccccc3)cs2)c1 tested_on="Adenosine receptor A2a (Homo sapiens, UniProt P29274)" measure_unit=nM measured_result=437
smiles_input=O=C(NCCCCCCNc1ncnc2c1ncn2[C@@H]1O[C@H](CO)[C@@H](O)[C@H]1O)c1cccc(-c2cccs2)c1 tested_on="Adenosine receptor A2a (Homo sapiens, UniProt P29274)" measure_unit=nM measured_result=1320

Values were extracted from ChEMBL document CHEMBL4043287.
